biological target: human P2X3 receptor (Homo sapiens (Human), UniProt P56373); assay: Evaluation of human P2X3 receptor inhibitory activity (Fluo-3 calcium fluorescence, FDSS 3000, ATP stimulation); assay type: cell-based; conditions: C6BU-1 cells stably expressing human P2X3 receptor, Fluo-3 fluorescence, FDSS 3000;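 further: stimulus was 50 nM ATP with fluorescence followed for 3 min, and the response per well was peak post-ATP fluorescence divided by the reading at measurement start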
Sequence (P56373 whole entry): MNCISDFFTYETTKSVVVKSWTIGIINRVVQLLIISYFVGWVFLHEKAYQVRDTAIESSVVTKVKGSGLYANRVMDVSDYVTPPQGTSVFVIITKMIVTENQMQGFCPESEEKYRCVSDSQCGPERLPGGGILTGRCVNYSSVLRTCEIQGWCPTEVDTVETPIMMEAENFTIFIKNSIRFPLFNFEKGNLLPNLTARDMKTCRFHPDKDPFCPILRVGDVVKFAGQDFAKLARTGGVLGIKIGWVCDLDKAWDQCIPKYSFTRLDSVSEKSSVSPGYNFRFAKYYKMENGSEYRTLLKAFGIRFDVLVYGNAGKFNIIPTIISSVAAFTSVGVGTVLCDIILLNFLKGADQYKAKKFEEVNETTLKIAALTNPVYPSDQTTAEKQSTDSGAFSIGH
measuredQuantity: IC50

COC(=O)[C@H](C)Cn1c(=O)[nH]/c(=N\c2ccc(OC(C)C)cc2)n(Cc2ccc(C)cc2)c1=O [Compound I-1104]	11 nM
Cc1ccc(Cn2c(=O)n(C[C@H](C)C(=O)O)c(=O)[nH]/c2=N\c2ccc(OC3CCOCC3)cc2)cc1 [Compound I-1074]	86 nM
CC[C@@H](C)Oc1ccc(/N=c2\[nH]c(=O)n([C@H](C)CC(=O)OC)c(=O)n2Cc2ccc(C)cc2)cc1 [Compound I-0939]	34 nM
CCn1c(=O)[nH]/c(=N\c2ccc(Oc3cccc(C(=O)O)c3)cc2)n(Cc2ccc(Cl)cc2)c1=O [Compound I-1881]	6 nM
CCc1oc2ccc(/N=c3\[nH]c(=O)n(CC(=O)O)c(=O)n3Cc3ccc(Cl)cc3)cc2c1C [Compound I-1609]	187 nM

// returns reported IC50 for input CC[C@@H](C)Oc1ccc(/N=c2\[nH]c(=O)n([C@H](C)CC(=O)O)c(=O)n2Cc2ccc(C)cc2)cc1 [Compound I-0936]
65 nM

// returns reported IC50 for input CCOC(=O)CCn1c(=O)[nH]/c(=N\c2ccc(OC(CC)CC)cc2)n(Cc2ccc(C)cc2)c1=O [Compound I-1054]
18 nM

// returns reported IC50 for input CCc1oc2ccc(/N=c3\[nH]c(=O)n(C[C@H](O)CO)c(=O)n3Cc3ccc(Cl)cc3)cc2c1C [Compound I-1624]
8 nM

// returns reported IC50 for input Cc1ccc(Cn2c(=O)n(C[C@H](C)C(=O)O)c(=O)[nH]/c2=N\c2ccc(Cl)c(Cl)c2)cc1 [Compound I-1004]
85 nM

// returns reported IC50 for input Cc1ccc(Cn2c(=O)n([C@@H](C)[C@@H](C)C(=O)O)c(=O)[nH]/c2=N\c2ccc(OC(C)C)cc2)cc1 [Compound I-1082]
63 nM

// returns reported IC50 for input CC[C@@H](C)Oc1ccc(/N=c2\[nH]c(=O)n([C@H](C)CC(=O)O)c(=O)n2Cc2ccc(C)cc2)cc1C [Compound I-0937]
22 nM

// returns reported IC50 for input CCc1nc2ccc(/N=c3\[nH]c(=O)n(CC4(C(=O)O)CC4)c(=O)n3Cc3ccc(C)cc3)cc2s1 [Compound I-1556]
11 nM

// returns reported IC50 for input C[C@@H](C(=O)O)[C@H](C)n1c(=O)[nH]/c(=N\c2ccc3[nH]ncc3c2)n(Cc2ccc(Cl)cc2)c1=O [Compound I-1743]
861 nM

// returns reported IC50 for input COC(=O)c1cc(/N=c2\[nH]c(=O)n(CCC(=O)O)c(=O)n2Cc2ccc(C)cc2)cn1C [Compound I-1879]
128 nM
